# Tested on: Plasmodium falciparum Sir2 (PF13_0152, Sir2A)
# Procedure Summary: pfSir2 binders on small-molecule microarrays, primary screen, biochemical, small-molecule microarray, 635 nm fluorescence (AID 1098);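 note: score merges spot fluorescence intensity with its signal-to-noise ratio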
# Study Conditions: small-molecule microarray binding, fluorescence 635 nm; higher = more signal
Each record here notes measured composite z-score.
Note: the reply should be a number with no unit written.

Fill in the blank: the reported composite z-score of CCOC(=O)C1CCCCN1 (centres undefined) is ____.
0.19

Param item = O=C1NC(=O)C2C1C=CC(C(O)c1ccco1)N2Nc1ccccn1 (centres undefined) ; retrieve measured composite z-score.
0.76

Requested field: composite z-score. Item: NCCCCCCNC(=O)[C@@H]1C[C@@H]2C(=O)N[C@@H](CCCCN)C(=O)N2[C@@H]1c1cccc(OCCO)c1
1.85

Recorded composite z-score for [N-]=[N+]=Nc1ccccc1[C@H]1OC(c2ccc(OCCCO)cc2)=N[C@@]1(Cc1ccccc1)C(=O)N1CCCCC1 , please?
0.813

Field request: composite z-score | item: COc1ccc(CCNC(=O)[C@@H]2c3ccccc3C(=O)N(Cc3cc(C(F)(F)F)cc(C(F)(F)F)c3)[C@H]2c2ccc(CO)cc2)cc1
1.1

New cases:
I am curious: what composite z-score value has been reported for C#CCN([C@@H](Cc1ccc(O)cc1)C(=O)OC)[C@@H](/C=C/C1CC1)[C@H](O)Cc1ccccc1 ?
-0.189

Any idea what its composite z-score is? The molecule is COCCOC(=O)N1C(=O)[C@@]2(c3cc(C#CC4=CCCCC4)ccc31)[C@H](c1ccc(OCCO)cc1)N1[C@H](c3ccccc3)[C@H](c3ccccc3)OC(=O)[C@H]1[C@@H]2C(=O)NC[C@H](O)c1ccccc1
1.44

Tell me the measured composite z-score of CC1=C[C@@]2(CO)C(=O)[C@]3(CO3)[C@@H]1[C@H]1[C@]2(C)C=C(CO)C(=O)[C@]12CO2 , please.
0.451

For the molecule [N-]=[N+]=Nc1ccccc1C[C@]1(C(N)=O)N=C(c2ccc(OCCCO)cc2)O[C@H]1c1ccccc1N=[N+]=[N-] , what composite z-score is on record?
0.902

Reference for the values: PubChem BioAssay
